// provenance: paper PMC11042424

assay: Pharmacokinetics in C57BL/6J mice; assay type: in vivo; settings: mouse, plasma, ip, 10 mg/kg i.p., read-out: Cmax
measure: Cmax (nM)
Report as a plain number; the unit nM is understood.

For this compound ( `Cc1ncsc1-c1ccc([C@H](C)NC(=O)[C@@H]2C[C@@H](O)CN2C(=O)[C@@H](NC(=O)CCCCCCCCCCC(=O)NCCCn2cc(-c3ccc4c(c3)CCN4C(=O)Cc3cccc(OC(F)(F)F)c3)c3c(N)ncnc32)C(C)(C)C)cc1` ), measured Cmax is 2900

---

assay: Pharmacokinetics in C57BL/6J mice; format: in vivo; settings: mouse, plasma, iv, 1 mg/kg i.v., read-out: maximum plasma concentration (Cmax)
measure: Cmax (µM)
Report as a plain number; the unit µM is understood.

For this compound ( `Cc1ncsc1-c1ccc([C@H](C)NC(=O)[C@@H]2C[C@@H](O)CN2C(=O)[C@@H](NC(=O)CCCCCCCCCCC(=O)NCCCn2cc(-c3ccc4c(c3)CCN4C(=O)Cc3cccc(OC(F)(F)F)c3)c3c(N)ncnc32)C(C)(C)C)cc1` ), measured Cmax is 6.3

---

assay: Plasma protein binding; assay type: in vitro ADME; conditions: read-out: bound to plasma proteins (converted)
measure: fraction unbound
Answer using only a numeral; do not append any unit.

For this molecule ( `Cc1ncsc1-c1ccc([C@H](C)NC(=O)[C@@H]2C[C@@H](O)CN2C(=O)[C@@H](NC(=O)CCCCCCCCCCC(=O)NCCCn2cc(-c3ccc4c(c3)CCN4C(=O)Cc3cccc(OC(F)(F)F)c3)c3c(N)ncnc32)C(C)(C)C)cc1` ), measured fraction unbound is 0.014

---

experiment: Pharmacokinetics in C57BL/6J mice; type: in vivo; details: mouse, plasma, ip, 10 mg/kg i.p., read-out: AUC
measure: AUC (µM·h)
Report as a plain number; the unit µM·h is understood.

For this compound ( `Cc1ncsc1-c1ccc([C@H](C)NC(=O)[C@@H]2C[C@@H](O)CN2C(=O)[C@@H](NC(=O)CCCCCCCCCCC(=O)NCCCn2cc(-c3ccc4c(c3)CCN4C(=O)Cc3cccc(OC(F)(F)F)c3)c3c(N)ncnc32)C(C)(C)C)cc1` ), measured AUC is 2.7

---

assay: Pharmacokinetics in C57BL/6J mice; assay type: in vivo; settings: mouse, plasma, iv, 1 mg/kg i.v., read-out: half-life (t1/2) (converted)
measure: half-life (h)
Report as a plain number; the unit h is understood.

For this molecule ( Cc1ncsc1-c1ccc([C@H](C)NC(=O)[C@@H]2C[C@@H](O)CN2C(=O)[C@@H](NC(=O)CCCCCCCCCCC(=O)NCCCn2cc(-c3ccc4c(c3)CCN4C(=O)Cc3cccc(OC(F)(F)F)c3)c3c(N)ncnc32)C(C)(C)C)cc1 [LD4172] ), measured half-life is 3.3

---

test: Pharmacokinetics in C57BL/6J mice; format: in vivo; conditions: mouse, plasma, iv, 1 mg/kg i.v., read-out: volume of distribution (Vd)
measure: Vd
Answer shape: numeric part, then the unit.

For this compound ( `Cc1ncsc1-c1ccc([C@H](C)NC(=O)[C@@H]2C[C@@H](O)CN2C(=O)[C@@H](NC(=O)CCCCCCCCCCC(=O)NCCCn2cc(-c3ccc4c(c3)CCN4C(=O)Cc3cccc(OC(F)(F)F)c3)c3c(N)ncnc32)C(C)(C)C)cc1` ), measured Vd is 1.1 L/kg
